# assay-procedure: Selectivity index, ratio of IC50 for HEK293T cells to MIC for Mycobacterium tuberculosis H37Rv
# Assay type: functional, HEK-293T
Reported values of Selectivity Index for individual entries
readout: Selectivity Index

> print(dat)
                         substance.smiles  result.number
1  CC[C@H](CO)NC(=S)NC(=O)c1ccc(N(C)C)cc1            3.8
2    CC[C@H](CO)NC(=S)NC(=O)/C=C/c1ccccc1          119.2
3        CC[C@H](CO)NC(=S)NC(=O)c1ccccc1O             14
4       CC[C@H](CO)NC(=S)NC(=O)CCc1ccccc1            9.3
